# Study system: Vascular endothelial growth factor receptor 1 (Homo sapiens, UniProt P17948)
# Sequence (P17948 whole entry): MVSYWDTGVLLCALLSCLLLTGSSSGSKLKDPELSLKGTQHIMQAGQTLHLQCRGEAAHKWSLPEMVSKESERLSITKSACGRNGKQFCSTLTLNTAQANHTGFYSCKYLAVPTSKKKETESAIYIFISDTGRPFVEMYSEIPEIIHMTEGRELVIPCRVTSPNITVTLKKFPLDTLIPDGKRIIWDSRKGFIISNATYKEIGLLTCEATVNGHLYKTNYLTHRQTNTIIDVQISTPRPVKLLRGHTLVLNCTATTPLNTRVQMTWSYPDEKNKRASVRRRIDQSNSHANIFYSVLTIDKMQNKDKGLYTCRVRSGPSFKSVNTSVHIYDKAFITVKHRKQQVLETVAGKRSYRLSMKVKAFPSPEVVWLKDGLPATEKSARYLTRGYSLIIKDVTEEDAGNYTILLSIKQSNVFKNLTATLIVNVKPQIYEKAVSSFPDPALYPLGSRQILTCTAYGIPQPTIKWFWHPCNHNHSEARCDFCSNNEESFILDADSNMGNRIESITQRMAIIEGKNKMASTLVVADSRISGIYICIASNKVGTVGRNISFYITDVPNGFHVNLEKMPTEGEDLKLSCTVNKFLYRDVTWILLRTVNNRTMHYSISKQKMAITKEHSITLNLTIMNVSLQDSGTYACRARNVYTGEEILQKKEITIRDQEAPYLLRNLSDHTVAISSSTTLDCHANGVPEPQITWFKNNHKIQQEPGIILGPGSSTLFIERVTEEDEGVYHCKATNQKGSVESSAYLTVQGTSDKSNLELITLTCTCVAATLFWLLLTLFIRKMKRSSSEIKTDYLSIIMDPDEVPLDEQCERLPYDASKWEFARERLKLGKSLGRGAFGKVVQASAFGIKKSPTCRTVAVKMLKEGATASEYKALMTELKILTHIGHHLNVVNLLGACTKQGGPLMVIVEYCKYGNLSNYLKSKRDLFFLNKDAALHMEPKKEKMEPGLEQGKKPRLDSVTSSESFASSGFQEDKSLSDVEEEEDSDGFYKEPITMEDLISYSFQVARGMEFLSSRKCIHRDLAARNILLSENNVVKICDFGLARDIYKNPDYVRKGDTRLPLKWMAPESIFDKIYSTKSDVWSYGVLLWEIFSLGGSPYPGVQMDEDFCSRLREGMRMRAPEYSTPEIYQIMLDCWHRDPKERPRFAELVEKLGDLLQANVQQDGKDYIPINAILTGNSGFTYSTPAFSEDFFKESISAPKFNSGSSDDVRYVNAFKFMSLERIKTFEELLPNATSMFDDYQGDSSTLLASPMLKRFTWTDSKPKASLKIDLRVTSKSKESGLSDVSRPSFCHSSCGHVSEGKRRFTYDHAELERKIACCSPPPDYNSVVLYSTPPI
# Protocol details: Inhibition of GST tagged Flt-1 (unknown origin) expressed in baculovirus at pH 7.6 measured after 10 to 30 mins in presence of gamma-[33P]-ATP by scintillation counter analysis
Measured endpoint: pIC50
Hey, just a heads up that pIC50 is the negative log base 10 of the concentration in molar.

Query string: Quick one: pIC50 for "Nc1ncnc2c1c(-c1cccc(OCc3ccccc3)c1)cn2[C@H]1C[C@@H](CN2CCC2)C1" ?
Result string: 6.22

* * *

# Study system: Fibroblast growth factor receptor 1 (Homo sapiens, UniProt P11362)
# Sequence (P11362 whole entry): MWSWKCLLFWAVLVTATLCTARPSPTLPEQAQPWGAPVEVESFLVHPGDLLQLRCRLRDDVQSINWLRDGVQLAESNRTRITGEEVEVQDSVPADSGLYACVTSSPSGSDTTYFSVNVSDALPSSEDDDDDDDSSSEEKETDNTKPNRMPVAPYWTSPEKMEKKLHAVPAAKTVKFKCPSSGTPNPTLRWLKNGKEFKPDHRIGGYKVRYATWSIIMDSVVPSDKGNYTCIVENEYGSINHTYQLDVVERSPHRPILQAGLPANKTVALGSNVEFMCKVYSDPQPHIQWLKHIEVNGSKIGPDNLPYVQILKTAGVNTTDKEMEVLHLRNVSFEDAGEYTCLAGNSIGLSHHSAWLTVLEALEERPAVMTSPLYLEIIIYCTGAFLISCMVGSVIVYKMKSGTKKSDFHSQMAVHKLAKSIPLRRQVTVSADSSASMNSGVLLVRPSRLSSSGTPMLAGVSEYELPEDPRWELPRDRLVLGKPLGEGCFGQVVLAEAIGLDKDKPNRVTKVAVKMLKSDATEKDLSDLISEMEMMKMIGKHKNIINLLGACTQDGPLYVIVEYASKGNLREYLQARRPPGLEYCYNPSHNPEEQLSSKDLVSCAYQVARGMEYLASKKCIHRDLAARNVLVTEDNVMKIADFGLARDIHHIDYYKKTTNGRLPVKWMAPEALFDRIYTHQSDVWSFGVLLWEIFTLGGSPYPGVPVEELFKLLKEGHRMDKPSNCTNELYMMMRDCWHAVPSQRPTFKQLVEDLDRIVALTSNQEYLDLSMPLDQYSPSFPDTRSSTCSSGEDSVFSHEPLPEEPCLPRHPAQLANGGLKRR
# Protocol details: Inhibition of GST tagged FGFR-1 (unknown origin) expressed in baculovirus at pH 7.6 measured after 10 to 30 mins in presence of gamma-[33P]-ATP by scintillation counter analysis
Measured endpoint: IC50 (µM)
Give just the numeric value; µM need not be written.

Query string: Quick one: IC50 for "Nc1ncnc2c1c(-c1cccc(OCc3ccccc3)c1)cn2[C@H]1C[C@@H](CN2CCC2)C1" ?
Result string: 4.1

Data provenance: ChEMBL document CHEMBL5653598
